- measurement-description: Inhibition of HIV NL4.3 integrase T124/T125 double mutant assessed as reduction in viral replication by luciferase reporter gene assay
- Parameters: species or system Human immunodeficiency virus
measured-attribute: EC50
# output: numeric value plus its unit

Solved cases (2 shown):
Cc1nc(C(=O)N[C@H]2CC[C@H](C)CC2)c(C)c(-c2ccc(Cl)cc2)c1[C@H](OC(C)(C)C)C(=O)O = 7.3 nM
Cc1cccc(NC(=O)c2nc(C)c([C@H](OC(C)(C)C)C(=O)O)c(-c3ccc(Cl)cc3)c2C)c1 = 3.7 nM

Please give the measured EC50 for this compound: Cc1noc(C)c1-c1ccc(-c2nc(C)c([C@H](OC(C)(C)C)C(=O)O)c(-c3ccc(Cl)cc3)c2C)cc1 7.7 nM

Which EC50 reading was recorded for the compound Cc1nc(-c2nc3ccc(F)cc3n2C)c(C)c(-c2ccc3c(c2C)N(C)CCO3)c1[C@H](OC(C)(C)C)C(=O)O ? 3 nM

Query (compound): Cc1nc(-c2nc3ccccc3n2C)c(C)c(-c2ccc3c(c2C)N(C)CCO3)c1[C@H](OC(C)(C)C)C(=O)O ; field requested: EC50 3.3 nM

Consider the compound shown here: Cc1ccc2nc(-c3nc(C)c([C@H](OC(C)(C)C)C(=O)O)c(-c4ccc5c(c4C)N(C)CCO5)c3C)n(C)c2c1 What is its recorded EC50? 3 nM

Need EC50 of Cc1nc(C(=O)NCc2ccccc2)c(C)c(-c2ccc3c(c2)CCCO3)c1[C@H](OC(C)(C)C)C(=O)O , thanks. 14 nM

* * *

Reported Ratio EC50 values are given for each entry in this list.
- System: Human immunodeficiency virus
- measurement-description: Ratio of EC50 for HIV1 NL4.3 integrase N124/T125 double mutant in presence of human serum to EC50 for HIV1 NL4.3 integrase N124/T125 double mutant in absence of human serum
Just the number, please, no unit after it.

// known answers, use as guide
Cc1nc(C(=O)N[C@H]2CC[C@H](C)CC2)c(C)c(-c2ccc(Cl)cc2)c1[C@H](OC(C)(C)C)C(=O)O = 3.7
Cc1nc(-c2nc3ccc(F)cc3n2C)c(C)c(-c2ccc3c(c2C)N(C)CCO3)c1[C@H](OC(C)(C)C)C(=O)O = 1.4
Cc1nc(-c2cn(-c3ccccc3)nn2)c(C)c(-c2ccc3c(c2)CCCO3)c1[C@H](OC(C)(C)C)C(=O)O = 17

I would be grateful if you could share the reported Ratio EC50 for Cc1nc(-c2nc3ccccc3n2C)c(C)c(-c2ccc3c(c2C)N(C)CCO3)c1[C@H](OC(C)(C)C)C(=O)O . 4.9

Quick check: Ratio EC50 of Cc1nc(C(=O)N[C@H]2CC[C@H](C)CC2)c(C)c(-c2ccc3c(c2)N(C)CCO3)c1[C@H](OC(C)(C)C)C(=O)O ? 4.1

// lookup Ratio EC50 for Cc1nc(C(=O)N[C@H]2CC[C@H](C)CC2)c(C)c(-c2ccc3c(c2)NCCO3)c1[C@H](OC(C)(C)C)C(=O)O 2.1

* * *

- measurement-description: Inhibition of HIV NL4.3 integrase N124/T125 double mutant assessed as reduction in viral replication by luciferase reporter gene assay
- Set-up: species or system Human immunodeficiency virus
measured-attribute: EC50 (nM)
Supply the numeric figure in nM, leaving out any unit text.

Cc1nc(NC(=O)c2ccccc2)c(C)c(-c2ccc(Cl)cc2)c1[C@H](OC(C)(C)C)C(=O)O = 1100
Cc1nc(C(=O)Nc2ccccc2)c(C)c(-c2ccc(Cl)cc2)c1[C@H](OC(C)(C)C)C(=O)O = 670
Cc1ccc2nc(-c3nc(C)c([C@H](OC(C)(C)C)C(=O)O)c(-c4ccc5c(c4C)N(C)CCO5)c3C)n(C)c2c1 = 91
Cc1noc(C)c1-c1ccc(-c2nc(C)c([C@H](OC(C)(C)C)C(=O)O)c(-c3ccc4c(c3)CCCO4)c2C)cc1 = 390
Cc1nc(C(=O)NCc2ccccc2)c(C)c(-c2ccc3c(c2)CCCO3)c1[C@H](OC(C)(C)C)C(=O)O = 200

For the next question, use this molecule.
Given the entry Cc1nc(NC(=O)c2ccccc2OC(F)(F)F)c(C)c(-c2ccc3c(c2)N(C)CCO3)c1[C@H](OC(C)(C)C)C(=O)O , report its measured EC50. 220
